assay: NCI Yeast Anticancer Drug Screen. Data for the sgs1 mgt1 strain (AID 161);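 also: 0% = growth of cultures given vehicle only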; conditions: S. cerevisiae sgs1 mgt1 strain, at 50.0 µM, stronger effect = higher value
About 79,000 compounds went through this panel and 15% of them were active in at least one assay; those are over-represented in the sample as a whole.
I'd be grateful if you could share measured growth inhibition for these entries.
Just the number in %, nothing appended.

Return reported growth inhibition; argument: O=[N+]([O-])O.[Tl]
-16.8

Return reported growth inhibition; argument: O=C1CC(=O)N(C2CCC(C3CCCCC3)CC2)C(=O)N1 (centres undefined)
27.5

Return reported growth inhibition; argument: O=C(O)c1ccc(Cl)c(Cl)c1.[Ni]
-4.35

Return reported growth inhibition; argument: CN1CC=C(c2cccn2C)CC1
-6.45
